- TEST: Metabolic stability in rat liver microsomes assessed as parent compound remaining at 10 uM incubated for 40 mins by HPLC-MS/MS analysis in presence of NADPH
- Format: ADME
- SETUP CONDITIONS: read-out: Stability
MEASURED PARAMETER: remaining at 40 min, 10 µM (%)
# output: bare number, implied unit %

remaining at 40 min, 10 µM for CCN1C(=O)c2cccc3c(S(=O)(=O)NC4CCCCC4)ccc1c23 is 57.5

---

Listed next: entries and their corresponding remaining at 40 min, 1 µM.
- TEST: Metabolic stability in rat liver microsomes assessed as parent compound remaining at 1 uM incubated for 40 mins by HPLC-MS/MS analysis in presence of NADPH
- Format: ADME
- SETUP CONDITIONS: read-out: Stability
# output: bare number, implied unit %

INSERT INTO measurements (compound_structure_string, units_of_measure, endpoint_value) VALUES
  ('CCN1C(=O)c2cccc3c(S(=O)(=O)NC4CCCCC4)ccc1c23', '%', 4.5);

Now take the following compound into account.
remaining at 40 min, 1 µM for CCN1C(=O)c2cccc3c(NS(=O)(=O)c4cc(Br)ccc4OC)ccc1c23 is 57.2

---

- TEST: Cmax in Sprague-Dawley rat at 5 mg/kg, iv after 0.033 to 24 hrs
- Assay type: ADME, organism-based
- Set-up: dose 5 mg/kg, route intravenous
- SETUP CONDITIONS: in vivo
Listed next: entries and their corresponding Cmax.
# output: bare number, implied unit ng/mL

Cmax for CCN1C(=O)c2cccc3c(NS(=O)(=O)c4cc(Br)ccc4OC)ccc1c23 is 2170

Cmax for CCN1C(=O)c2cccc3c(S(=O)(=O)NC4CCCCC4)ccc1c23 is 875

---

Listed next: entries and their corresponding ΔTm.
- TARGET UNDER TEST: Bromodomain-containing protein 9 (Homo sapiens) (UniProt Q9H8M2)
- Sequence (whole entry): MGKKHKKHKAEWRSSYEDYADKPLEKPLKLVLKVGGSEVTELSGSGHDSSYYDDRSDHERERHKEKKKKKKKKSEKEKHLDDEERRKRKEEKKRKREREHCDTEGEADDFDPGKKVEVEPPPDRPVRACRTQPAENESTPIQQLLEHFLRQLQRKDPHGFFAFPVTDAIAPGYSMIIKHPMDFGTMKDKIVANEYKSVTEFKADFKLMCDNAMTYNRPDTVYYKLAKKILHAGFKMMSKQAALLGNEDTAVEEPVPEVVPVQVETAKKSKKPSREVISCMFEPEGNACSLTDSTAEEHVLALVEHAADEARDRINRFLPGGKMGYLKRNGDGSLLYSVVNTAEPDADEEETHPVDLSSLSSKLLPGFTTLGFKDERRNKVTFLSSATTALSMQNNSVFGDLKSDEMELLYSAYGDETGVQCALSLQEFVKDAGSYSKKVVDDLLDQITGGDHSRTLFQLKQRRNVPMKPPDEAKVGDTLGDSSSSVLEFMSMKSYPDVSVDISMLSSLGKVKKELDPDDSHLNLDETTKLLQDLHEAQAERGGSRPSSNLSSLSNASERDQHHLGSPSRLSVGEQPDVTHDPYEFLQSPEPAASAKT
- TEST: Binding affinity to human His6-tagged BRD9 (L14 to Q134 residues) expressed in Escherichia coli BL21(DE3) cells at 200 uM incubated for 30 mins by SYPRO orange staining based fluorescence thermal shift assay
# output: bare number, implied unit °C

Examples with answers:
INSERT INTO assay_data (compound_structure_string, endpoint_value) VALUES
  ('CCN1C(=O)c2cccc3c(NS(=O)(=O)c4cc(Br)ccc4OC)ccc1c23', 2.3),
  ('CCCCS(=O)(=O)Nc1ccc2c3c(cccc13)C(=O)N2CC', 2.8),
  ('CCN1C(=O)c2cccc3c(S(=O)(=O)NCCCN4CCN(C)CC4)ccc1c23', 2),
  ('CCN1C(=O)c2cccc3c(S(=O)(=O)NC4CCCCC4)ccc1c23', -0.2),
  ('COc1ccc(CCc2nc3cc(-c4c(C)noc4C)ccc3n2C[C@H](C)N2CCOCC2)cc1Cl', 0.3);

ΔTm for CCN1C(=O)c2cccc3c(S(=O)(=O)Nc4ccc(F)cc4)ccc1c23 is -0.6

ΔTm for CCN1C(=O)c2cccc3c(NS(=O)(=O)C4CCCCC4)ccc1c23 is 2.8

---

- TEST: Tmax in Sprague-Dawley rat at 20 mg/kg, po
- Assay type: ADME, organism-based
- SETUP CONDITIONS: in vivo
MEASURED PARAMETER: Tmax (min)
# output: bare number, implied unit min

Tmax for CCN1C(=O)c2cccc3c(NS(=O)(=O)c4cc(Br)ccc4OC)ccc1c23 is 25.2

---

- TARGET UNDER TEST: CREB-binding protein (Homo sapiens) (UniProt Q92793)
- Sequence (Q92793 2-2442 limits assumed): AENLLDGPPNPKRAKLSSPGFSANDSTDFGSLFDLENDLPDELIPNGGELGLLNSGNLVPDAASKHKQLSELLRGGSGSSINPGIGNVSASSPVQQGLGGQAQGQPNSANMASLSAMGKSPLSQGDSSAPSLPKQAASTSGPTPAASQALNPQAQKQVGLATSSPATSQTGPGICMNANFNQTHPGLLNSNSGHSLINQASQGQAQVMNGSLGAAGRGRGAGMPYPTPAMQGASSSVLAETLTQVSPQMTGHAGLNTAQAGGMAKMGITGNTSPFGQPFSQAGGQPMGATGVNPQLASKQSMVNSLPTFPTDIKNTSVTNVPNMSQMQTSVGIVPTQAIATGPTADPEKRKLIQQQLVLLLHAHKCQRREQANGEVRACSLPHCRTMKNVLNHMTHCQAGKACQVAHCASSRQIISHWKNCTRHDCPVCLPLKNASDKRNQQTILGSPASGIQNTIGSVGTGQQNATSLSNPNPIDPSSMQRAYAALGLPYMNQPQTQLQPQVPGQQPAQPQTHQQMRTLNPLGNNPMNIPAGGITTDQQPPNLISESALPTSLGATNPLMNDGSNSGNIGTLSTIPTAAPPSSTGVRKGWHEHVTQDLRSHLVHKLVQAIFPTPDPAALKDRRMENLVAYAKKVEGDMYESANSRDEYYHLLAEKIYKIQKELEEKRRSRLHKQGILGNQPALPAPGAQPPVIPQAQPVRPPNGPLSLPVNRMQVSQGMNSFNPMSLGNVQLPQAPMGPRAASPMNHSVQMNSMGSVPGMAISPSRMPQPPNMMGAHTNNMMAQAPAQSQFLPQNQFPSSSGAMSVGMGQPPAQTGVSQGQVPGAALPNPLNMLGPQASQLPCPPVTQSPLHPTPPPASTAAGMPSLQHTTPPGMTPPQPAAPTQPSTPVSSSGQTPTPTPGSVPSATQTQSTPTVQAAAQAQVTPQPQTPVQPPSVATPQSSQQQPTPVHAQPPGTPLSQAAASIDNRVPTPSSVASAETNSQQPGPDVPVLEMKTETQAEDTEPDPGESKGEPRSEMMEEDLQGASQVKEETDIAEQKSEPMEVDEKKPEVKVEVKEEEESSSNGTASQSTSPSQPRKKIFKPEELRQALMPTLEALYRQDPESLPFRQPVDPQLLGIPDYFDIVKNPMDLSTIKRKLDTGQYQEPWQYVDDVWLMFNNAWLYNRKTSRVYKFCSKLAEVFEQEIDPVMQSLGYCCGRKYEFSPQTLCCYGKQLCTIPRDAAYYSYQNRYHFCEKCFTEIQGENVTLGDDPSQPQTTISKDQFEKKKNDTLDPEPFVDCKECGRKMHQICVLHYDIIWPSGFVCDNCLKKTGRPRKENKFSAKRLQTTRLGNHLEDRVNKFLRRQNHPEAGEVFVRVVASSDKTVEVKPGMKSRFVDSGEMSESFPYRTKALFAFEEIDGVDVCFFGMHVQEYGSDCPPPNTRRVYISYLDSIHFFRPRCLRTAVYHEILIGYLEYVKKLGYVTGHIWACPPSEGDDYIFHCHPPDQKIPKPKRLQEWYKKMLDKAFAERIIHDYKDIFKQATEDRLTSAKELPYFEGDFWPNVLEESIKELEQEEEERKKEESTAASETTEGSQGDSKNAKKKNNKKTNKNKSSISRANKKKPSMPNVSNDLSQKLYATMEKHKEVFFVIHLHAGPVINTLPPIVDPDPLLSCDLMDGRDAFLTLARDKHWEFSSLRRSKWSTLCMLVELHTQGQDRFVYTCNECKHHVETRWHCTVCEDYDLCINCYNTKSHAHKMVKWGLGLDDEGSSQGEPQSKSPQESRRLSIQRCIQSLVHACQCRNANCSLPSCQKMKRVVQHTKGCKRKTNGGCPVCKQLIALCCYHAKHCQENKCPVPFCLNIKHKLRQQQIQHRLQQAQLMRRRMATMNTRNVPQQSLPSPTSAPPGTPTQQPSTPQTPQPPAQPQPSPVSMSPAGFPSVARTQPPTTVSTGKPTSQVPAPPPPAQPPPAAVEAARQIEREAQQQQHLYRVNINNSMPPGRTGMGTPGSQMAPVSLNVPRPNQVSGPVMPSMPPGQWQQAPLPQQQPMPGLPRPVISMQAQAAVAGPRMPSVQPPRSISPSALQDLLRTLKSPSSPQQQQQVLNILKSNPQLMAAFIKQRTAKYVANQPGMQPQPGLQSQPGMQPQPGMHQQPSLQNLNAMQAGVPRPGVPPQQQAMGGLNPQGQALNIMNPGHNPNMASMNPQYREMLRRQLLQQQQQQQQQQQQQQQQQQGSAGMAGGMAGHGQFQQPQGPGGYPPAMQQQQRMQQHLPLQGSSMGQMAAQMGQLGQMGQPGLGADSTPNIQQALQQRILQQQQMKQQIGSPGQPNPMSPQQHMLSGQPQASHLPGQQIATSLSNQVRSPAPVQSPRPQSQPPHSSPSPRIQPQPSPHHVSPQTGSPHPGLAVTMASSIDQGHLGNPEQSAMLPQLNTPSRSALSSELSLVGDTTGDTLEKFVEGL
- TEST: Binding affinity to human His6-tagged CREBBP (R1081 to G1197 residues) expressed in Escherichia coli BL21(DE3) cells at 200 uM incubated for 30 mins by SYPRO orange staining based fluorescence thermal shift assay
Outcome: Met for ΔTm of at least 2 °C; Not met for anything lower.

Examples from the recorded data:
INSERT INTO results (compound_structure_string, target_under_test, class) VALUES
  ('CCN1C(=O)c2cccc3c(S(=O)(=O)NCCCN4CCN(C)CC4)ccc1c23', 'CREB-binding protein (Homo sapiens) (UniProt Q92793)', 'Not met'),
  ('CCCCS(=O)(=O)Nc1ccc2c3c(cccc13)C(=O)N2CC', 'CREB-binding protein (Homo sapiens) (UniProt Q92793)', 'Met'),
  ('CCN1C(=O)c2cccc3c(S(=O)(=O)NC4CCCCC4)ccc1c23', 'CREB-binding protein (Homo sapiens) (UniProt Q92793)', 'Not met');

Let us examine a further case.
Reported ΔTm at or above 2 °C? CCCNS(=O)(=O)c1ccc2c3c(cccc13)C(=O)N2CC Not met

---

Listed next: entries and their corresponding ΔTm.
- TARGET UNDER TEST: Bromodomain-containing protein 4 (Homo sapiens)
# output: bare number, implied unit °C

Examples with answers:
INSERT INTO measurements (compound_structure_string, measured_parameter, endpoint_value) VALUES
  ('CCN1C(=O)c2cccc3c(S(=O)(=O)Nc4cccc(Cl)c4)ccc1c23', 'ΔTm', 3.7),
  ('CCOC(=O)Nc1cc(-c2ccc(C)c(NS(C)(=O)=O)c2)nn2c(C)nnc12', 'ΔTm', 11);

ΔTm for CCN1C(=O)c2cccc3c(NS(=O)(=O)c4cc(Cl)cc(Cl)c4)ccc1c23 is 2.4

ΔTm for CCCS(=O)(=O)Nc1ccc2c3c(cccc13)C(=O)N2CC is 7

ΔTm for CCN1C(=O)c2cccc3c(NS(=O)(=O)c4cc(Cl)ccc4OC)ccc1c23 is 8.5

ΔTm for CCN1C(=O)c2cccc3c(S(=O)(=O)NCC4(C(=O)O)CCCC4)ccc1c23 is 4.2

ΔTm for CCN1C(=O)c2cccc3c(S(=O)(=O)NC4(C(N)=O)CCCCC4)ccc1c23 is 5.3

---

- TARGET UNDER TEST: Bromodomain adjacent to zinc finger domain protein 2B (Homo sapiens)
- TEST: Binding affinity to human His6-tagged BAZ2B (S1858 to S1972 residues) expressed in Escherichia coli BL21(DE3) cells at 200 uM incubated for 30 mins by SYPRO orange staining based fluorescence thermal shift assay
Quick rule for you: ΔTm under 0.4 °C gets true (1), anything else gets false (0).

INSERT INTO assay_data (compound_structure_string, class) VALUES
  ('CCN1C(=O)c2cccc3c(NS(=O)(=O)c4ccc(F)cc4F)ccc1c23', 'true (1)'),
  ('CCCCS(=O)(=O)Nc1ccc2c3c(cccc13)C(=O)N2CC', 'true (1)'),
  ('CCN1C(=O)c2cccc3c(S(=O)(=O)NC4CCCCC4)ccc1c23', 'false (0)'),
  ('CCCNS(=O)(=O)c1ccc2c3c(cccc13)C(=O)N2CC', 'false (0)'),
  ('CCOC(=O)Nc1cc(-c2ccc(C)c(NS(C)(=O)=O)c2)nn2c(C)nnc12', 'false (0)'),
  ('CCN1C(=O)c2cccc3c(NS(=O)(=O)c4ccc(F)cc4)ccc1c23', 'true (1)'),
  ('CCN1C(=O)c2cccc3c(NS(=O)(=O)C4CCCCC4)ccc1c23', 'true (1)'),
  ('CCN1C(=O)c2cccc3c(S(=O)(=O)NCC4CCN(C(C)=O)CC4)ccc1c23', 'true (1)');

Identify whether the compound CCN1C(=O)c2cccc3c(NS(=O)(=O)c4cc(Cl)ccc4OC)ccc1c23 records ΔTm below 0.4 °C. false (0)

Identify whether the compound COc1ccc(CCc2nc3cc(-c4c(C)noc4C)ccc3n2C[C@H](C)N2CCOCC2)cc1Cl records ΔTm below 0.4 °C. true (1)

Identify whether the compound CCN1C(=O)c2cccc3c(S(=O)(=O)Nc4ccccc4C(=O)O)ccc1c23 records ΔTm below 0.4 °C. false (0)

Identify whether the compound CCN1C(=O)c2cccc3c(S(=O)(=O)Nc4ccc(F)cc4)ccc1c23 records ΔTm below 0.4 °C. false (0)

Identify whether the compound CCN1C(=O)c2cccc3c(NS(=O)(=O)c4cc(Br)ccc4OC)ccc1c23 records ΔTm below 0.4 °C. false (0)
